- assay-info: chemical genetic growth profiling, strain panel (AID 1159580);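 further: tested at 20 µM; growth read once vehicle control cultures reached saturation at 30 °C; 1 = growth at the plate median or of vehicle wells; lower values mean less growth of the strain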
- run-parameters: S. cerevisiae deletion strains, growth OD, locus YOR265W, strain rbl2, active compounds read low
Hit rate of the full screen: of about 5,500 compounds, about 2,000 (36%) were called active. Roughly 18% stayed inconclusive and do not appear here. The list shows a part of the results.
Listed here: items and their measured normalized growth.
Give a plain numeric answer without units written out.

Worked set:
INSERT INTO results (molecule, endpoint_label, reported_value) VALUES
  ('COc1c2ccccc2nc2occc12', 'normalized growth', 0.98),
  ('CCC(=O)Nc1ccc(Cl)c(Cl)c1', 'normalized growth', 0.995),
  ('COC(=O)CCC(C)C1CCC2C3CC[C@@H]4C[C@H](O)CC[C@]4(C)C3C[C@H](O)[C@]12C (some centres not stated)', 'normalized growth', 0.98),
  ('CC[C@H](CCC(C)[C@H]1CCC2C3CCC4C[C@@H](O)CC[C@]4(C)C3CC[C@@]21C)C(C)C (some centres not stated)', 'normalized growth', 1.02),
  ('CC(CCC(=O)O)[C@H]1CCC2C3CC[C@@H]4C[C@H](O)CC[C@]4(C)C3C[C@H](O)[C@@]21C (some centres not stated)', 'normalized growth', 0.997),
  ('C[C@H](CCC(=O)O)[C@H]1CCC2C3C(CC[C@@]21C)[C@@]1(C)CC[C@@H](O)C[C@H]1C[C@@H]3O (some centres not stated)', 'normalized growth', 0.99);

Now, please, on to the next molecule.
Reported normalized growth, molecule COc1c2ccoc2nc2c(OC)c(OCC(O)C(C)(C)O)ccc12 (configuration not stated) : ____
1

* * *

Listed here: items and their measured normalized growth.
- assay-info: chemical genetic growth profiling, strain panel (AID 1159580);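 further: tested at 20 µM; growth read once vehicle control cultures reached saturation at 30 °C; 1 = growth at the plate median or of vehicle wells; lower values mean less growth of the strain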
- run-parameters: S. cerevisiae deletion strains, growth OD, locus YKL009W, strain mrt4, active compounds read low
Out of some 5,500 compounds screened, about 2,000 (36%) were called active. About 18% were inconclusive and are not listed. This is one part of the list.
Give a plain numeric answer without units written out.

Worked set:
INSERT INTO results (compound, reported_value) VALUES
  ('N[C@@H](Cc1cc(I)c(Oc2ccc(O)c(I)c2)c(I)c1)C(=O)O', 0.979),
  ('N[C@H](Cc1cc(I)c(Oc2ccc(O)c(I)c2)c(I)c1)C(=O)O', 1.03),
  ('CN(C)CCC(c1ccc(Br)cc1)c1ccccn1 (stereo not given)', 0.99),
  ('N#C/C(=C\c1cccc(O)c1)C(=O)O', 0.989),
  ('NC(Cc1ccc(F)cc1)C(=O)O (stereo not given)', 1),
  ('C[C@@H]1CC2C3C[C@H](F)C4=CC(=O)C=C[C@]4(C)[C@@]3(F)[C@@H](O)C[C@]2(C)[C@@]1(O)C(=O)COC(=O)C(C)(C)C (stereo not given in full)', 0.982),
  ('c1ccc2c(c1)CN1CCCC1=N2', 0.955),
  ('COc1cc(OC)c2c3c1C(=O)c1c(OC)cc(C)c4c(OC)cc(c-3c14)C(C)(C)C2=O', 0.979),
  ('CC(=O)O[C@H]1C[C@@H](OC(C)=O)C(C)(C)C2CC(=O)[C@]3(C)C(CC[C@@]4(C)[C@H](c5ccoc5)OC(=O)[C@H]5O[C@]543)[C@]21C (stereo not given in full)', 0.974);

Reported normalized growth, compound N[C@H](Cc1ccccc1)C(=O)O : ____
1.01
